Target: PRC2/EZH2+/+ (Homo sapiens, UniProt Q15910)
Construct: purchased Active Motif
Experiment: Scintillation proximity assay (SPA) of H3K27 methylation
Format: biochemical
Conditions: 15' enzyme:inhibitor pre-incubation; read-out: SPA Mean IC50 (M) - 15' enzyme:inhibitor pre-incubation EZH2+/+
Each record here notes measured IC50.

compound	valueMeasured
CCCc1cc(C)[nH]c(=O)c1CNC(=O)c1cc(-c2ccc(N3CCN(C(C)C)CC3)nc2)cc2c1cnn2C(C)C [Compound 9, UNC1999]	3.7e-09 M

Let's switch to this compound now.
Using the record for Cc1cc(C)c(CN2CCc3c(Cl)cc(-c4c(C)noc4C)c(Cl)c3C2=O)c(=O)[nH]1 [Compound 14] , report its IC50.
1.9e-09 M

====

Target: PRC2/EZH1 (Homo sapiens)
Construct: N-terminal 6His-tagged full length EZH2^Y641N, EZH2^Y111L, EZH2^Y111D, EZH2^Y641N, Y661DEZH2, EZH1; 6His (N); made in house; host or cells: Sf9 insect cells (baculovirus co-infection)
Assay: Scintillation proximity assay (SPA) of H3K27 methylation
Type: biochemical
Settings: 60' enzyme:inhibitor pre-incubation; read-out: SPA Mean IC50 (M) - 60' enzyme:inhibitor pre-incubation EZH1
Each record here notes measured IC50.
Numbers only here, please. The scale is M.

inputSmiles	IC50 (M)
Cc1cc(C)c(CN2CCc3c(Cl)cc(-c4c(C)noc4C)c(Cl)c3C2=O)c(=O)[nH]1	2.9e-07

Let's switch to this compound now.
Using the record for CC[C@H](C)n1cc(C)c2c(C(=O)NCc3c(C)cc(C)[nH]c3=O)cc(-c3ccc(N4CCNCC4)nc3)cc21 , report its IC50.
1e-06

====

Target: PRC2/EZH2+/+ (Homo sapiens, UniProt Q15910)
Construct: purchased Active Motif
Experiment: Equilibrium probe competition assay (ePCA), TR-FRET
Type: binding
Settings: EZH2+/+ (- H3K27me3), 30 °C; read-out: Ki (Equilibrium)
parameter: Ki (nM)
Numbers only here, please. The scale is nM.

inputSmiles	parameter	valueMeasured
CCCc1cc(C)[nH]c(=O)c1CNC(=O)c1cc(-c2ccc(N3CCN(C(C)C)CC3)nc2)cc2c1cnn2C(C)C	Ki	8.06

Let's switch to this compound now.
Using the record for Cc1cc(C)c(CN2CCc3c(Cl)cc(-c4c(C)noc4C)c(Cl)c3C2=O)c(=O)[nH]1 , report its Ki.
1.96

====

System: H3K27me3 mark in MDA-MB-231 cells
Assay: High content analysis (HCA) of cellular H3K27me3 mark, washout format
Type: cell-based
Conditions: Homo sapiens, MDA-MB-231, read-out: Mean IC50 (M), H3K27 methylation HCA; incubation time 24 h, washout time 48 h
Each record here notes measured IC50.
Numbers only here, please. The scale is M.

Using the record for Cc1cc(C)c(CNC(=O)c2cc(Cl)c3c(c2C)O[C@@](C)([C@H]2CC[C@H](N(C)C)CC2)O3)c(=O)[nH]1 , report its IC50.
1.2e-07

Field entry: Cc1cc(C)c(CN2CCc3c(Cl)cc(-c4c(C)noc4C)c(Cl)c3C2=O)c(=O)[nH]1
1.6e-06

====

Each record here notes measured Ki.
Biological target: PRC2/EZH2+/+ (Homo sapiens)
Construct: purchased Active Motif
Experiment: Equilibrium probe competition assay (ePCA), TR-FRET
Assay type: binding
Conditions: EZH2+/+ (+ H3K27me3); sheet ePCA&kPCA RT; read-out: Equilibrium Ki
Just the number plus its unit, please.

inputSmiles	valueMeasured
CCCc1cc(C)[nH]c(=O)c1CNC(=O)c1cc(-c2ccc(N3CCN(C(C)C)CC3)nc2)cc2c1cnn2C(C)C	1.14 nM

Let's switch to this compound now.
Lookup: Ki / PRC2/EZH2+/+ (Homo sapiens) / Cc1cc(C)c(CN2CCc3c(Cl)cc(-c4c(C)noc4C)c(Cl)c3C2=O)c(=O)[nH]1
0.907 nM

====

Biological target: PRC2/EZH2Y641N+Y661D (Homo sapiens, UniProt Q15910, Y641N/Y661D)
Construct: N-terminal 6His-tagged full length EZH2^Y641N, EZH2^Y111L, EZH2^Y111D, EZH2^Y641N, Y661DEZH2, EZH1; 6His (N); made in house; host or cells: Sf9 insect cells (baculovirus co-infection)
Assay: Scintillation proximity assay (SPA) of H3K27 methylation
Type: biochemical
Details: 60' enzyme:inhibitor pre-incubation; read-out: SPA Mean IC50 (M) - 60' enzyme:inhibitor pre-incubation EZH2Y641N+Y661D
parameter: IC50 (M)
Numbers only here, please. The scale is M.

inputSmiles	studyTarget	IC50 (M)
CCCc1cc(C)[nH]c(=O)c1CNC(=O)c1cc(-c2ccc(N3CCN(C(C)C)CC3)nc2)cc2c1cnn2C(C)C	PRC2/EZH2Y641N+Y661D (Homo sapiens, UniProt Q15910, Y641N/Y661D)	3.2e-06

Let's switch to this compound now.
Using the record for Cc1cc(C)c(CN2CCc3c(Cl)cc(-c4c(C)noc4C)c(Cl)c3C2=O)c(=O)[nH]1 , report its IC50.
1.6e-06

====

Tested on: H3K27me3 mark in MDA-MB-231 cells
Assay: High content analysis (HCA) of cellular H3K27me3 mark, washout format
Assay type: cell-based
Conditions: Homo sapiens, MDA-MB-231, H3K27 methylation HCA; incubation time 2 h, washout time 70 h; read-out: Mean IC50
parameter: IC50

Using the record for CCS(=O)(=O)N1CCC([C@@H](C)n2c(C)c(C(=O)NCc3c(OC)cc(C)[nH]c3=O)c3ccccc32)CC1 , report its IC50.
> 12 µM

====

Assay: in vitro
Type: in vitro ADME
Conditions: human, Caco-2, pH 7.2; 2 µM, 2 h, 37 °C, apical to basolateral; read-out: PK Caco-2 Flux Papp A-B (mean)
Label yes when Papp A→B at 2 h, 2 µM >= 0.6 ×10⁻⁶ cm/s; otherwise no.

// below: answered compounds
compound	answerLabel
CCCc1cc(C)[nH]c(=O)c1CNC(=O)c1cc(-c2ccc(N3CCN(C(C)C)CC3)nc2)cc2c1cnn2C(C)C [Compound 9, UNC1999]	no
CCN(c1cc(-c2ccc(CN3CCOCC3)cc2)cc(C(=O)NCc2c(C)cc(C)[nH]c2=O)c1C)C1CCOCC1 [Compound 2, Tazemetostat]	yes
Cc1cc(C)c(CN2CCc3c(Cl)cc(-c4c(C)noc4C)c(Cl)c3C2=O)c(=O)[nH]1 [Compound 14]	yes

Pending compound:
Check this compound for Papp A→B at 2 h, 2 µM at or above 0.6 ×10⁻⁶ cm/s: CCS(=O)(=O)N1CCC([C@@H](C)n2c(C)c(C(=O)NCc3c(OC)cc(C)[nH]c3=O)c3ccccc32)CC1 [Compound 10, CPI-169]
no

====

Target: PRC2/EZH2Y641N+Y661D (Homo sapiens, UniProt Q15910, Y641N/Y661D)
Construct: N-terminal 6His-tagged full length EZH2^Y641N, EZH2^Y111L, EZH2^Y111D, EZH2^Y641N, Y661DEZH2, EZH1; 6His (N); made in house; host or cells: Sf9 insect cells (baculovirus co-infection)
Assay: Scintillation proximity assay (SPA) of H3K27 methylation
Assay type: biochemical
Conditions: 0' enzyme:inhibitor pre-incubation; read-out: SPA Mean IC50 (M) - 0' enzyme:inhibitor pre-incubation EZH2Y641N+Y661D
Each record here notes measured IC50.
Numbers only here, please. The scale is M.

inputSmiles	displayUnit	IC50
Cc1cc(C)c(CN2CCc3c(Cl)cc(-c4c(C)noc4C)c(Cl)c3C2=O)c(=O)[nH]1	M	1.4e-06

Let's switch to this molecule now.
Using the record for CCCc1cc(C)[nH]c(=O)c1CNC(=O)c1cc(-c2ccc(N3CCN(C(C)C)CC3)nc2)cc2c1cnn2C(C)C , report its IC50.
3e-06

====

Biological target: PRC2/EZH2Y641N (Homo sapiens, UniProt Q15910, Y641N)
Construct: Synthetic cDNA encoding N-terminal 6His-tagged full length EZH2^Y641N; 6His (N); made in house; host or cells: Sf9 insect cells (baculovirus co-infection)
Experiment: Kinetic probe competition assay (kPCA), TR-FRET
Type: binding
Conditions: EZH2Y641N (+ H3K27me3), kinetic, RT sheet
parameter: Kd (nM)
Numbers only here, please. The scale is nM.

inputSmiles	valueMeasured
Cc1cc(C)c(CN2CCc3c(Cl)cc(-c4c(C)noc4C)c(Cl)c3C2=O)c(=O)[nH]1	0.68

Let's switch to this molecule now.
Using the record for CCCc1cc(C)[nH]c(=O)c1CNC(=O)c1cc(-c2ccc(N3CCN(C(C)C)CC3)nc2)cc2c1cnn2C(C)C , report its Kd.
4.56

Data origin, for the record: paper PMC10799085
